Below: a set of entries, each annotated with reported pIC50.
Target: central benzodiazepine receptors
Test: Inhibition of binding of tritiated diazepam at specific benzodiazepine receptors in the cerebral cortex
Conditions: 50 percent inhibition of specific binding of tritiated diazepam
pIC50: −log10 of the molar value.
observed_property: pIC50

compound: COCc1noc(-c2ncn3c2[C@@H]2CCCN2C(=O)c2c(Cl)cccc2-3)n1
reported_value: 8.28
//
compound: Cc1noc(-c2ncn3c2[C@@H]2CCCN2C(=O)c2c(Br)cccc2-3)n1 [Example 5]
reported_value: 8.68
//
compound: CN1Cc2c(-c3nc(C4CC4)no3)ncn2-c2cccc(Cl)c2C1=O
reported_value: 8.35
//
compound: Cc1noc(-c2ncn3c2C2CCN2C(=O)c2c(Cl)cccc2-3)n1 (racemic)
reported_value: 8.00
//
compound: CN1Cc2c(-c3nc(C4CC4)no3)ncn2-c2ccc(F)cc2C1=O
reported_value: 8.25
//
compound: Cc1noc(-c2ncn3c2[C@@H]2CCN2C(=O)c2c-3cccc2C(F)(F)F)n1 [Example 9]
reported_value: 8.43
//
compound: O=C1c2c(Cl)cccc2-n2cnc(-c3nc(C4CC4)no3)c2[C@@H]2CCCN12
reported_value: 8.66
//
compound: CON=Cc1ncn2c1[C@@H]1CCN1C(=O)c1c(Cl)cccc1-2 [Example 23]
reported_value: 8.00
//
compound: Cc1noc(-c2ncn3c2[C@@H]2CCCN2C(=O)c2c-3ccc(F)c2Cl)n1 [Example 4]
reported_value: 8.28
//
compound: Cc1noc(-c2ncn3c2CN(C)C(=O)c2c(Cl)cccc2-3)n1
reported_value: 8.41
//
compound: Cc1noc(-c2ncn3c2[C@@H]2CCCN2C(=O)c2c(Cl)cccc2-3)n1
reported_value: 8.64
//
compound: O=C1c2c(Cl)cccc2-n2cnc(-c3noc(C(F)(F)F)n3)c2[C@@H]2CCCN12
reported_value: 8.02
//
compound: Cc1nnc(-c2ncn3c2[C@@H]2CCCN2C(=O)c2c(Cl)cccc2-3)o1
reported_value: 8.08
